molecular target: ICAM-1 extracellular domain (C-terminal His) (Homo sapiens, UniProt P05362 SEQ:1-453); test: ITC; 37 C, potassium phosphate; 37 nM at 33 C (weaker); conditions: tags: C-terminal His6; Ray-Biotech 228-21751-2
Sequence (P05362 28-480): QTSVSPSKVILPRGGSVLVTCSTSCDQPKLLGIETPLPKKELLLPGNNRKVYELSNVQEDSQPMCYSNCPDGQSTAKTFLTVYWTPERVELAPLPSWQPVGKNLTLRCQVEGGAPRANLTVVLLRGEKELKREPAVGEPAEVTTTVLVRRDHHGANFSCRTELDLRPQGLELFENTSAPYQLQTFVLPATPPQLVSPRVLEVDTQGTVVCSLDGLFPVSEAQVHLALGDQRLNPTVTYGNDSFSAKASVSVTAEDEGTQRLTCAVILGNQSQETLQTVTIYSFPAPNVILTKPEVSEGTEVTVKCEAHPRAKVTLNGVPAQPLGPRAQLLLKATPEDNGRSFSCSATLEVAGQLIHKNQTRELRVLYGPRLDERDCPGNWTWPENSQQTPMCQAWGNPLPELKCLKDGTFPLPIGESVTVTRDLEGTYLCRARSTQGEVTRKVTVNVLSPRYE
READOUT TYPE: Kd (nM)
Answer in nM, number only, no unit symbol.

The reported value for GTGCTCACTTGTCAATCTATGACTGCTGCTGAGTAAG (ssDNA) [NasD-4.1 State 4] in terms of Kd is 6.39
